# Tested on: RPMI-8226 leukemia
# procedure-details: NCI tumour cell line growth inhibition, 48 h
property-name: TGI

>  <compound>
CN(C)C(=O)Oc1ccc[n+](C)c1

>  <tested-system>
RPMI-8226 leukemia

>  <result>
> 100 µM

$$$$
>  <compound>
CCn1cc(C2NC(=O)c3ccccc3N2)c2cccc(C)c21 (stereo unspecified)

>  <tested-system>
RPMI-8226 leukemia

>  <result>
> 100 µM

$$$$
>  <compound>
c1ccc(-c2ccc(-c3ccc(C4=NCCN4)cc3)o2)cc1

>  <tested-system>
RPMI-8226 leukemia

>  <result>
2.88 µM

$$$$
>  <compound>
COc1ccc(N=NC(=O)NC(CC(C)C)C(=O)NC(CC(C)C)C(=O)O)cc1 (stereo unspecified)

>  <tested-system>
RPMI-8226 leukemia

>  <result>
> 100 µM

$$$$
>  <compound>
COc1cc2c[n+](C)c3c4cc(OC)c(OC)cc4c(OCCCCCCCCOc4cc5c6cc(OC)c(OC)cc6c[n+](C)c5c5cc(OC)c(OC)cc45)cc3c2cc1OC

>  <tested-system>
RPMI-8226 leukemia

>  <result>
> 100 µM

$$$$
>  <compound>
CCOC(=O)C(=CNC(=S)c1ccncc1)C(=O)OCC

>  <tested-system>
RPMI-8226 leukemia

>  <result>
> 100 µM

$$$$
>  <compound>
COc1ccc(-n2cnc3c(N)nc(N)nc32)cc1

>  <tested-system>
RPMI-8226 leukemia

>  <result>
> 100 µM

$$$$
>  <compound>
O=c1cccccc1NCCCCCCCCNc1cccccc1=O

>  <tested-system>
RPMI-8226 leukemia

>  <result>
> 100 µM

$$$$
>  <compound>
Cc1ccc2c(c1)C(=O)C(c1c(-c3[nH]c(=O)c4ccc(C)cc4c3O)c(O)c3ccccc3c1O)=NC2=O

>  <tested-system>
RPMI-8226 leukemia

>  <result>
6.68 µM

$$$$
>  <compound>
COc1cc2c(cc1O)[C@@]1(Cc3ccc(OC)c(OC)c3)CCC(=O)N1CC2

>  <tested-system>
RPMI-8226 leukemia

>  <result>
> 100 µM

$$$$
>  <compound>
Nc1c(N2CCCCC2)c(=O)nc2[nH]/c(=C\c3ccco3)c(=O)n12

>  <tested-system>
RPMI-8226 leukemia

>  <result>
> 100 µM

$$$$

###

# Test system: SW-620 colon
# procedure-details: NCI tumour cell line growth inhibition, 48 h; in the data active = GI50 below about 0.43 µM; inactive = the rest
Classes used: active, inactive

>  <molecule>
O=C1C(C(Nc2ccccc2)c2ccccc2)=C([O-])c2ccccc21.O=C1C(C(Nc2ccccc2)c2ccccc2)=C([O-])c2ccccc21.[Ni+2] (configuration not stated)

>  <assigned-class>
inactive

$$$$
>  <molecule>
COC(=O)c1oc2c(C(C)=O)c(OCCN3CCOCC3)c(OC)cc2c1C

>  <assigned-class>
inactive

$$$$
>  <molecule>
CCOC(=O)C(=Cc1ccc(-c2ccccc2)cc1)C(=O)OCC

>  <assigned-class>
inactive

$$$$
>  <molecule>
CCOc1cc2ncc(C#N)c(Nc3ccc(F)c(Cl)c3)c2cc1NC(=O)CC1CCSS1 (configuration not stated)

>  <assigned-class>
inactive

$$$$
>  <molecule>
O=C(c1ccccc1)N(C(=S)NCCc1ccc(Cl)cc1)c1ccc(Cl)cc1

>  <assigned-class>
inactive

$$$$
>  <molecule>
CN1CCN(CCOc2ccc(-c3cnc4c(-c5cccc(F)c5F)cnn4c3)cc2)CC1

>  <assigned-class>
inactive

$$$$
>  <molecule>
N#Cc1cc2c(cc1Cl)SC(=Nc1ccccc1)N(S(=O)(=O)c1ccc(Cl)cc1)S2(=O)=O

>  <assigned-class>
inactive

$$$$
>  <molecule>
COc1cccc(CNCCN2C(=O)c3ccc4c5c(ccc(c35)C2=O)C(=O)N(CCNCc2cccc(OC)c2)C4=O)c1

>  <assigned-class>
inactive

$$$$
>  <molecule>
O=C1Nc2ccccc2/C1=C/C(=N/c1nnc(-c2ccc(Cl)cc2)s1)c1ccccc1

>  <assigned-class>
inactive

$$$$
>  <molecule>
COc1ccc2c3c([nH]c2c1)C(=O)c1nc(C)ccc1C3=O

>  <assigned-class>
inactive

$$$$
>  <molecule>
O=C1/C(=C/c2ccc(Cl)cc2Cl)CN(S(=O)(=O)c2ccccc2)C/C1=C\c1ccc(Cl)cc1Cl

>  <assigned-class>
active

$$$$
>  <molecule>
CCn1cc(C2NC(=O)c3ccccc3N2)c2cccc(C)c21 (configuration not stated)

>  <assigned-class>
active

$$$$

###

# Test system: 786-0 renal
# procedure-details: NCI tumour cell line growth inhibition, 48 h; in the data active = GI50 below about 0.43 µM; inactive = the rest
Classes used: active, inactive

>  <compound>
O=C1/C(=C/c2ccc(Cl)cc2Cl)CN(S(=O)(=O)c2ccccc2)C/C1=C\c1ccc(Cl)cc1Cl

>  <tested-system>
786-0 renal

>  <assigned-class>
active

$$$$
>  <compound>
COC(=O)c1oc2c(C(C)=O)c(OCCN3CCOCC3)c(OC)cc2c1C

>  <tested-system>
786-0 renal

>  <assigned-class>
inactive

$$$$
>  <compound>
COc1ccc2c(c1)c(-c1nonc1-c1cn(C)c3ccccc13)cn2C

>  <tested-system>
786-0 renal

>  <assigned-class>
inactive

$$$$
>  <compound>
CC(=O)Oc1cn(-c2ccc(Cl)cc2)nc1C1=NN(C(C)=O)C(c2ccc(F)cc2F)O1 (stereo not given)

>  <tested-system>
786-0 renal

>  <assigned-class>
inactive

$$$$
>  <compound>
O=C(c1ccccc1)N(C(=S)NCCc1ccc(Cl)cc1)c1ccc(Cl)cc1

>  <tested-system>
786-0 renal

>  <assigned-class>
inactive

$$$$
>  <compound>
C[C@H](Nc1ccc2c(c1)OCCn1cc(N3C(=O)OC[C@H]3C(F)F)nc1-2)C(N)=O

>  <tested-system>
786-0 renal

>  <assigned-class>
inactive

$$$$
>  <compound>
Cn1ccnc1C(=O)/C=C/c1ccc(C(=O)Nc2ccc(F)cc2)cc1

>  <tested-system>
786-0 renal

>  <assigned-class>
inactive

$$$$
>  <compound>
COc1cc(Cl)cc(-c2nn(-c3cccc(NC(=O)c4cccc(C(F)(F)F)c4)c3)cc2-c2ccncc2)c1

>  <tested-system>
786-0 renal

>  <assigned-class>
inactive

$$$$
>  <compound>
CCn1cc(C2NC(=O)c3ccccc3N2)c2cccc(C)c21 (stereo not given)

>  <tested-system>
786-0 renal

>  <assigned-class>
inactive

$$$$
>  <compound>
N#C/C(=C\c1ccc2c(c1)OCO2)n1nnc2ccccc21

>  <tested-system>
786-0 renal

>  <assigned-class>
inactive

$$$$

###

# System: CAKI-1 renal
# procedure-details: NCI tumour cell line growth inhibition, 48 h
Each item that follows carries a reported TGI.
property-name: TGI

>  <molecule>
N#C/C(=C/c1cccc2ccccc12)C(=O)c1ccccc1

>  <result>
> 100 µM

$$$$
>  <molecule>
Nc1c(N2CCCCC2)c(=O)nc2[nH]/c(=C\c3ccco3)c(=O)n12

>  <result>
> 100 µM

$$$$
>  <molecule>
C#CCC(O)c1ccccc1C(O)CC#C (stereo not drawn)

>  <result>
> 100 µM

$$$$
>  <molecule>
CN1CCN(CCCOc2ccc3ncnc(Nc4ccc(OCc5cccc(F)c5)c(Cl)c4)c3c2)CC1

>  <result>
2.34 µM

$$$$
>  <molecule>
Cc1cc(Cl)ccc1Nc1nc(C(F)(F)F)ccc1C(=O)N/N=C/c1cccc(O)c1

>  <result>
5.98 µM

$$$$
>  <molecule>
COP(=O)(OC)/C(=C\C1=CN(C(c2ccccc2)(c2ccccc2)c2ccccc2)CN1)NC=O

>  <result>
39.5 µM

$$$$
>  <molecule>
O=C(c1ccccc1)N(C(=S)NCCc1ccc(Cl)cc1)c1ccc(Cl)cc1

>  <result>
20.9 µM

$$$$
>  <molecule>
CC1=C(C)C2(C#N)C(=O)N3C(=NC(c4ccccc4)NC3c3ccccc3)C2(C#N)C(c2ccccc2)N1 (stereo not drawn)

>  <result>
> 100 µM

$$$$
>  <molecule>
CN(C)C(=O)Oc1ccc[n+](C)c1

>  <result>
> 100 µM

$$$$
>  <molecule>
COc1ccc2c3c([nH]c2c1)C(=O)c1nc(C)ccc1C3=O

>  <result>
> 100 µM

$$$$
>  <molecule>
COc1ccc(N=NC(=O)NC(CC(C)C)C(=O)NC(CC(C)C)C(=O)O)cc1 (stereo not drawn)

>  <result>
> 100 µM

$$$$
>  <molecule>
COc1ccccc1NC(=O)c1ccc(NC2=C(Cl)C(=O)N(Cc3ccccc3)C2=O)cc1

>  <result>
2.95 µM

$$$$
>  <molecule>
NCCN1C(=O)c2cc(Cl)c(Cl)cc2C1(O)c1ccc(Cl)cc1 (stereo not drawn)

>  <result>
7.02 µM

$$$$
>  <molecule>
c1ccc(CNc2ccc3[nH]c4cnccc4c3c2)cc1

>  <result>
30.4 µM

$$$$
>  <molecule>
CC(=O)O[C@@H]1C(C2CCCCC2)C=[N+]([O-])O[C@@H]1OC1CCCC1(c1ccccc1)c1ccccc1 (stereo partly drawn)

>  <result>
10.4 µM

$$$$
>  <molecule>
CC(=O)Oc1ccc2c3c1[C@H]1O[C@H]1c1cccc(c1-3)[C@@H]1O[C@H]21

>  <result>
7.96 µM

$$$$
>  <molecule>
Cc1cccc(-n2c(C)nc3ccc(NC(=S)Nc4ccccc4)cc3c2=O)c1

>  <result>
> 100 µM

$$$$
>  <molecule>
COc1cc(/C=C\c2cc(/C=C\c3ccc(O)c(OC)c3)n(C(=O)COc3ccc(Cl)cc3Cl)n2)ccc1O

>  <result>
> 100 µM

$$$$
>  <molecule>
COCC1OC(OC2OCC3OC4(OCC(O)(C(C)OC)C5OCOC54)OC3C2OC)C(OC)C(O)C1OC1OC(C)C(OC)C(OC2OC(C)C3OC4(CC(O)C(OC5CC(OC6CC(C)([N+](=O)[O-])C(OC)C(C)O6)C(OC(=O)c6c(C)c(Cl)c(O)c(Cl)c6OC)C(C)O5)C(C)O4)OC3(C)C2O)C1O (stereo not drawn)

>  <result>
> 100 µM

$$$$
>  <molecule>
CCOc1ccc(/C=C\c2cc(OC)c(OC)c(OC)c2)cc1

>  <result>
18.6 µM

$$$$
>  <molecule>
CC(C)=NNC1=NC(C)(C)P(=O)(NNc2ncccn2)S1 (stereo not drawn)

>  <result>
> 100 µM

$$$$
>  <molecule>
O=c1cc(N2CCOCC2)[nH]c(=O)n1-c1cccc(Cl)c1

>  <result>
> 100 µM

$$$$
>  <molecule>
CCCC(=O)OCC(COC(=O)CCC)OC(=O)CCC

>  <result>
> 100 µM

$$$$
>  <molecule>
C[N+](C)(C)CC1CCCC(C[N+](C)(C)C)C1=NO (stereo not drawn)

>  <result>
> 100 µM

$$$$
>  <molecule>
Cc1ccc2c(=O)cc(-c3ccc(Cl)cc3)[nH]c2n1

>  <result>
> 65.9 µM

$$$$
>  <molecule>
O=C(Nc1nc(=S)[nH][nH]1)C(=O)C1C(=O)Nc2ccccc2S1=O (stereo not drawn)

>  <result>
> 100 µM

$$$$
>  <molecule>
CCc1n[nH]c(=S)n1/N=C/c1ccc(-c2ccc([N+](=O)[O-])cc2)o1

>  <result>
> 100 µM

$$$$
>  <molecule>
C[C@]12OC(=O)[C@]3(O)CC[C@H]4[C@@H](C[C@@H](O)[C@@]5(Cl)CC=CC(=O)[C@]45C)[C@]45OCC6C(=O)O[C@@H]1C[C@@]6(C)[C@H](C4=O)[C@@]32O5 (stereo partly drawn)

>  <result>
4.03 µM

$$$$
>  <molecule>
Cc1ccc(Oc2ccc(C(=O)c3cccc(C(=O)c4ccc(Oc5ccc(C)cc5)cc4)n3)cc2)cc1

>  <result>
> 100 µM

$$$$
>  <molecule>
O=C1/C(=C/c2ccc(Cl)cc2Cl)CN(S(=O)(=O)c2ccccc2)C/C1=C\c1ccc(Cl)cc1Cl

>  <result>
4.22 µM

$$$$
>  <molecule>
C[C@]12CC[C@H](OC3CCCCO3)CC1=CC[C@@H]1C2CC[C@]2(C)/C(=N/OCCC#N)CCC12 (stereo partly drawn)

>  <result>
> 100 µM

$$$$
>  <molecule>
C=C[C@]1(C)CC(O)C2C(=C)C(=O)OC2[C@H]1C(=C)C=O (stereo partly drawn)

>  <result>
13.5 µM

$$$$
>  <molecule>
CC(=O)c1c(-c2ccc(Cl)cc2)c(C#N)c(=S)n(C2OC(CO)C(O)C(O)C2O)c1-c1ccccc1 (stereo not drawn)

>  <result>
> 100 µM

$$$$
>  <molecule>
COc1ccc2nc3n[nH]c(N)c3nc2c1

>  <result>
> 90.6 µM

$$$$
>  <molecule>
NC(N)=NCCCC(NC(=O)OCCCCCn1ccc(N)nc1=O)C(=O)O (stereo not drawn)

>  <result>
> 100 µM

$$$$
>  <molecule>
COc1cc2c(cc1OC)-c1cc(OC)c(OC)cc1[C@H]1CN3CCC[C@@]3(O)C=C21

>  <result>
0.000403 µM

$$$$
>  <molecule>
CC(=O)Oc1cn(-c2ccc(Cl)cc2)nc1C1=NN(C(C)=O)C(c2ccc(F)cc2F)O1 (stereo not drawn)

>  <result>
79.8 µM

$$$$
>  <molecule>
COC(=O)C1CC2c3c(c4ccccc4n3C)CC(C1=O)N2C (stereo not drawn)

>  <result>
> 100 µM

$$$$
